# procedure_text: Protection index, ratio of TD50 for neurotoxicity in ip dosed mouse to ED50 for ip dosed pentylenetetrazole induced seizure mouse model
# Assay type: toxicity, organism-based
# experimental_context: in vivo, read-out: Ratio TD50/ED50
readout_type: selectivity ratio

compound: CCC(CO)NC(=O)/C=C/c1ccc(Cl)cc1 (centres undefined)
selectivity ratio: 2.18
--
compound: CC(O)CNC(=O)/C=C/c1ccc(Cl)cc1 (centres undefined)
selectivity ratio: 1.76
--
compound: O=C(/C=C/c1ccc(Cl)cc1)N[C@H]1CC[C@H](O)CC1
selectivity ratio: > 1.9

Exercise: Query selectivity ratio for "Cc1ccccc1/C=C/C(=O)N[C@@H](C)CO"
Solution: 2.57
